Molecular target: DRD2 (D2 long receptor) (Homo sapiens)
Test: β-arrestin2 recruitment (Tango), HTLA cells
Format: cell-based
Details: DRD2; Tango
Response field label: string, one of condition met (Emax relative to quinpirole response strictly below 70%) or condition not met.

COMPOUND	GROUP
CCCCOc1cccc2cc(C(C)NCC3(O)CCCCC3)oc12.Cl (centres unmarked) [O6LE6]	condition not met
CCCOc1cccc2cc(C(C)NCC3(O)CCCCC3)oc12.Cl (centres unmarked) [O5LE6]	condition not met
CCOc1cccc2cc(C(C)NCc3ccccc3)oc12.Cl (centres unmarked) [O4LE9]	condition met
COc1cccc2cc(C(C)NCC3(O)CCCCC3)oc12.Cl (centres unmarked) [O3LE6]	condition not met
CCOc1cccc2cc(C(C)NCC3(O)CCC3)oc12.Cl (centres unmarked) [O4LE4]	condition met
CCOc1cccc2cc(C(C)NCC3(O)CC3)oc12.Cl (racemic) [O4LE3]	condition met

====

Target: DRD3 F1063.28A (Homo sapiens, UniProt P35462, F106A)
Sequence (P35462 whole entry F106A): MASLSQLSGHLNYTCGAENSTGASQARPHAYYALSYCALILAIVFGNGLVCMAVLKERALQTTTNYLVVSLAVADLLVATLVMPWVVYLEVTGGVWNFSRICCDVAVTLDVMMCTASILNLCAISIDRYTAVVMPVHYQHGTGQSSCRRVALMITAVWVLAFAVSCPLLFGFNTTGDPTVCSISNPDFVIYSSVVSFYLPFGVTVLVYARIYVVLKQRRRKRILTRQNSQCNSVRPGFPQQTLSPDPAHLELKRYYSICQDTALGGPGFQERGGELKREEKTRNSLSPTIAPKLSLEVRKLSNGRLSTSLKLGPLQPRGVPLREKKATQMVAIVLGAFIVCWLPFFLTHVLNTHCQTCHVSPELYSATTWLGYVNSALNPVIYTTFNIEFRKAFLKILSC
Assay: biochemical
Type: binding
Conditions: DRD3 F1063.28A; read-out: Ki
pKi: −log10 of the molar value.

COMPOUND	pKi
CCOc1cccc2cc(C(C)NCC3(O)CC3)oc12.Cl (racemic) [O4LE3]	< 5.00
CCOc1cccc2cc(C(C)NCC(C)(C)O)oc12 (racemic) [O4LE2]	< 5.00
CCOc1cccc2cc(C(C)NCC3(O)CCC3)oc12.Cl (centres unmarked) [O4LE4]	< 5.00
CCOc1cccc2cc(C(C)NCCO)oc12 (centres unmarked) [O4LE1]	< 5.00
CCOc1cccc2cc(C(C)NCC3(O)CCCC3)oc12.Cl (racemic) [O4LE5]	5.37

====

Target: DRD2 (D2 long receptor) (Homo sapiens, UniProt P14416)
Sequence (P14416 whole entry): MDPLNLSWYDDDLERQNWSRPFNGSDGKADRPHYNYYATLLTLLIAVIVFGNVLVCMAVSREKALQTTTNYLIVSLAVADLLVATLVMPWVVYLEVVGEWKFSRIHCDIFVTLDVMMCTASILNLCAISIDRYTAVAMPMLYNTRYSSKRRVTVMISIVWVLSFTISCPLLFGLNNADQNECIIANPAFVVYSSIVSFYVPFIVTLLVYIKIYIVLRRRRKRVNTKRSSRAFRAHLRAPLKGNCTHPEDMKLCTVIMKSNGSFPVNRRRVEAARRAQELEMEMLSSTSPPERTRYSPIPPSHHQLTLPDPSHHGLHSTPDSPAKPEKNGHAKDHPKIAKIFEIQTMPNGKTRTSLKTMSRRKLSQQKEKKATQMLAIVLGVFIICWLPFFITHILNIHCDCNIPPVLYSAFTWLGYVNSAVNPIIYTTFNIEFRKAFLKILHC
Assay: β-arrestin2 recruitment (Tango), HTLA cells
Format: cell-based
Details: DRD2; β-arrestin2 recruitment (Tango); read-out: EC50 ± SEM
Each entry below lists one item and its recorded EC50 value.

COMPOUND	SUBJECT OF TEST	VALUE PREFIX	EC50 [nM]
CCOc1cccc2cc(C(C)NCC3(O)CCCC3)oc12.Cl (racemic) [O4LE5]	DRD2 (D2 long receptor) (Homo sapiens, UniProt P14416)	=	591
CCOc1cccc2cc(C(C)NCCO)oc12 (centres unmarked) [O4LE1]	DRD2 (D2 long receptor) (Homo sapiens, UniProt P14416)	>	10000
CCOc1cccc2cc(C(C)NCC(C)(C)O)oc12 (racemic) [O4LE2]	DRD2 (D2 long receptor) (Homo sapiens, UniProt P14416)	>	10000
CCOc1cccc2cc([C@H](C)NCC3(O)CCCCC3)oc12 [O4SE6]	DRD2 (D2 long receptor) (Homo sapiens, UniProt P14416)	=	1050
COc1cccc2cc(C(C)NCC3(O)CCCCC3)oc12.Cl (centres unmarked) [O3LE6]	DRD2 (D2 long receptor) (Homo sapiens, UniProt P14416)	=	166
CCOc1cccc2cc(C(C)NCC3(O)CCCCC3)oc12 (centres unmarked) [O4LE6]	DRD2 (D2 long receptor) (Homo sapiens, UniProt P14416)	=	43.2
CCCCOc1cccc2cc(C(C)NCC3(O)CCCCC3)oc12.Cl (centres unmarked) [O6LE6]	DRD2 (D2 long receptor) (Homo sapiens, UniProt P14416)	=	557
CCOc1cccc2cc(C(C)NCC3(O)CCCCCC3)oc12 (centres unmarked) [O4LE7]	DRD2 (D2 long receptor) (Homo sapiens, UniProt P14416)	=	44.6
CCOc1cccc2cc(C(C)NCC3(O)CCC3)oc12.Cl (centres unmarked) [O4LE4]	DRD2 (D2 long receptor) (Homo sapiens, UniProt P14416)	=	4890
CCCOc1cccc2cc(C(C)NCC3(O)CCCCC3)oc12.Cl (centres unmarked) [O5LE6]	DRD2 (D2 long receptor) (Homo sapiens, UniProt P14416)	=	48
CCOc1cccc2cc(C(C)NCc3ccccc3)oc12.Cl (centres unmarked) [O4LE9]	DRD2 (D2 long receptor) (Homo sapiens, UniProt P14416)	=	5370

====

Biological target: DRD3 F1063.28A (Homo sapiens, UniProt P35462, F106A)
Assay: biochemical
Type: binding
Details: DRD3 Phe106^3.28Ala vs wild-type DRD3
Each entry below lists one item and its recorded affinity decreased, mutant vs wild type value.

COMPOUND	UNIT OF MEASURE	affinity decreased, mutant vs wild type
CCOc1cccc2cc(C(C)NCC3(O)CCCCC3)oc12 (stereo not shown) [O4LE6]	fold	2.09
CCOc1cccc2cc(C(C)NCC3(O)CCCCCCC3)oc12 (stereo not shown) [O4LE8]	fold	1.62
CCOc1cccc2cc(C(C)NCC3(O)CCCCCC3)oc12 (stereo not shown) [O4LE7]	fold	1.75
CCOc1cccc2cc(C(C)NCC3(O)CCCC3)oc12.Cl (racemic) [O4LE5]	fold	4.19

====

Each entry below lists one item and its recorded Ki value.
Molecular target: DRD2 (D2 long receptor) wild-type (Homo sapiens, UniProt P14416)
Sequence (P14416 whole entry): as above
Assay: Radioligand competition binding, [3H]-N-methylspiperone, HEK293T membranes
Conditions: DRD2; [3H]-methylspiperone (0.8-1.0 nM); read-out: Ki

COMPOUND	UNIT OF MEASURE	VALUE PREFIX	Ki
CCOc1cccc2cc(C(C)NCC(C)(C)O)oc12 (racemic)	µM	>	10
CCOc1cccc2cc(C(C)NCC3(O)CC3)oc12.Cl (racemic)	µM	>	10
CCOc1cccc2cc(C(C)NCC3(O)CCCCCCC3)oc12 (stereo not drawn)	µM	=	1.44
CCOc1cccc2cc(C(C)NCC3(O)CCCCCC3)oc12 (stereo not drawn)	µM	=	1.58
COc1cccc2cc(C(C)NCC3(O)CCCCC3)oc12.Cl (stereo not drawn)	µM	=	4.78
CCOc1cccc2cc(C(C)NCC3(O)CCC3)oc12.Cl (stereo not drawn)	µM	>	10

====

Each entry below lists one item and its recorded pKi ± SEM value.
Molecular target: DRD2 (D2 long receptor) wild-type (Homo sapiens, UniProt P14416)
Test: Radioligand competition binding, [3H]-N-methylspiperone, HEK293T membranes
Details: DRD2 wild-type

COMPOUND	pKi ± SEM
CCOc1cccc2cc(C(C)NCC3(O)CCCC3)oc12.Cl (racemic)	5.02±0.07
COc1cccc2cc(C(C)NCC3(O)CCCCC3)oc12.Cl (stereo not shown)	5.32±0.22
CCCCOc1cccc2cc(C(C)NCC3(O)CCCCC3)oc12.Cl (stereo not shown)	5.69±0.06
CCCOc1cccc2cc(C(C)NCC3(O)CCCCC3)oc12.Cl (stereo not shown)	5.60±0.27

====

Biological target: DRD3 wild-type (Homo sapiens)
Sequence (P35462 whole entry): as the sequence (P35462 whole entry F106A) above, with A106F counted along it
Assay: Radioligand competition binding, [3H]-N-methylspiperone
Conditions: DRD3 wild-type; read-out: pKi ± SEM (converted)

COMPOUND	Ki (nM)
CCOc1cccc2cc(C(C)NCC3(O)CCCCC3)oc12 (stereo not shown) [O4LE6]	224
CCCCN(C)C(C)C(=O)Nc1cc([N+](=O)[O-])ccc1OC (stereo not shown) [O9LE9]	214
CCOc1cccc2cc([C@@H](C)NCC3(O)CCCCC3)oc12 [O4RE6]	115
CCOc1cccc2cc(C(C)NCC3(O)CCCCCCC3)oc12 (stereo not shown) [O4LE8]	126

====

Molecular target: DRD3 (Homo sapiens, UniProt P35462)
Sequence (P35462 whole entry): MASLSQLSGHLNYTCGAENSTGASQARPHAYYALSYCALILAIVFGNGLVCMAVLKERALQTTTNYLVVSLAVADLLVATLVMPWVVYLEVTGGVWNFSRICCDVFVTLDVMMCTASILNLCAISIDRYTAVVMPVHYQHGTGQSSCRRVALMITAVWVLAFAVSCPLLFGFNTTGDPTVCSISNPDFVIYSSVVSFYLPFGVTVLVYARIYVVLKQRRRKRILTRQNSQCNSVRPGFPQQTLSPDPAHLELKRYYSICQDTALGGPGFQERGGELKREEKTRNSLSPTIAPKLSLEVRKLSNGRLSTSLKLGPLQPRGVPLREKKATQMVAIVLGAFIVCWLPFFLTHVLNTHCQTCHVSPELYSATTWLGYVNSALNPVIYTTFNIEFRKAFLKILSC
Experiment: β-arrestin2 recruitment (Tango)
Assay type: cell-based
Conditions: DRD3; Tango; read-out: EC50 ± SEM
pEC50: −log10 of the molar value.
METRIC: pEC50

COMPOUND	VALUE PREFIX	RESULT VALUE
CCOc1cccc2cc(C(C)NCC3(O)CCCCCC3)oc12 (stereo not shown)	=	6.10
CCOc1cccc2cc([C@H](C)NCC3(O)CCCCC3)oc12	<	5.00
CCCCOc1cccc2cc(C(C)NCC3(O)CCCCC3)oc12.Cl (stereo not shown)	<	5.00
CCOc1cccc2cc([C@@H](C)NCC3(O)CCCCC3)oc12	=	6.09
CCOc1cccc2cc(C(C)NCC(C)(C)O)oc12 (racemic)	<	5.00
CCOc1cccc2cc(C(C)NCC3(O)CCC3)oc12.Cl (stereo not shown)	<	5.00
CCOc1cccc2cc(C(C)NCc3ccccc3)oc12.Cl (stereo not shown)	<	5.00
CCOc1cccc2cc(C(C)NCC3(O)CCCCCCC3)oc12 (stereo not shown)	=	5.59
COc1cccc2cc(C(C)NCC3(O)CCCCC3)oc12.Cl (stereo not shown)	=	5.26
CC(NCC1(O)CCCCC1)c1cc2ccccc2o1.Cl (stereo not shown)	=	5.60

====

Target: DRD4 (D4.4 variant) wild-type (Homo sapiens)
Experiment: Radioligand competition binding, [3H]-N-methylspiperone
Settings: Ki
pKi: −log10 of the molar value.
METRIC: pKi

COMPOUND	SUBJECT OF TEST	RESULT VALUE
CC(CCc1ccccc1[N+](=O)[O-])NCC1(O)CCCCC1 (stereo not shown)	DRD4 (D4.4 variant) wild-type (Homo sapiens)	< 5.00
